# Assay Summary: physchem
# Setup Conditions: 25 °C, water
Readout Label: Solubility
Answer with the figure and its unit, nothing else.

So what does the record say about Solubility for O=C(Nc1ccc([N+](=O)[O-])cc1Cl)c1cc(Cl)ccc1O [niclosamide] ?
5 µg/mL

----------
# System: SARS-CoV-2
# Assay Summary: microbe, parasite or virus in culture
# Assay type: cell-based
# Setup Conditions: Severe acute respiratory syndrome coronavirus 2, Vero C1008; Vero E6 cells; reporter SARS-CoV-2 MOI of 0.1; luciferase at 24 h post-infection; 0.5% DMSO; read-out: antiviral EC50
Readout Label: pEC50
In textbook form, pEC50 equals minus log to base ten of the concentration in mol/L.

Consider the compound shown here: O=C(Nc1ccc([N+](=O)[O-])cc1Cl)c1cc(Cl)ccc1O [niclosamide] What is its recorded pEC50?
6.82
